system: thyroid hormone receptor (endogenous TRα and TRβ); set-up: species or system GH3-TRE-Luc (rat pituitary); GH3-TRE-Luc luciferase reporter, antagonist mode against 1 nM T3, loss of signal, qHTS; conditions: antagonist mode, 1 nM T3, no GH3 cytotoxicity hit, read-out: Average AC50 (uM) GH3-TRE-Antag
Counter-ions that a name gives are not always drawn.
API: label(entry) gives Satisfied if the entry's AC50 is strictly smaller than 40 µM; on equality or larger values it gives Not satisfied.

{"columns": ["compound", "test.system", "cat"],
 "data": [
  ["O=C1C(=O)c2cccc3cccc1c23 [Acenaphthenequinone]", "thyroid hormone receptor (endogenous TRα and TRβ)", "Not satisfied"]
]}

Prompt: Determine if CC(C)NC(C)Cc1ccc(I)cc1 (centres unmarked) [Iofetamine hydrochloride] shows AC50 strictly lower than 40 µM.
Completion: Satisfied

Prompt: Determine if Cn1c(-c2ccccc2)cc(-c2ccccc2)[n+]1C [Difenzoquat metilsulfate] shows AC50 strictly lower than 40 µM.
Completion: Not satisfied

Prompt: Determine if Nc1ccc(N=Nc2ccc(-c3ccc(N=Nc4c(S(=O)(=O)O)cc5cc(S(=O)(=O)O)c(N=Nc6ccccc6)c(O)c5c4N)cc3)cc2)c(N)c1 [C.I. Direct Black 38] shows AC50 strictly lower than 40 µM.
Completion: Satisfied

Prompt: Determine if O=[N+]([O-])c1ccc(Oc2ccc(C(F)(F)F)cc2[N+](=O)[O-])cc1 [Fluorodifen] shows AC50 strictly lower than 40 µM.
Completion: Not satisfied

Prompt: Determine if CCOc1ccc2c3c1O[C@H]1[C@@H](O)C=C[C@H]4[C@@H](C2)N(C)CC[C@@]341 [Ethylmorphine] shows AC50 strictly lower than 40 µM.
Completion: Not satisfied

Prompt: Determine if O=P(Oc1ccccc1)(Oc1ccccc1)Oc1ccccc1 [Triphenyl phosphate] shows AC50 strictly lower than 40 µM.
Completion: Not satisfied

Prompt: Determine if CN1C[C@H](C(=O)N[C@]2(C)O[C@@]3(O)[C@@H]4CCCN4C(=O)[C@H](Cc4ccccc4)N3C2=O)C=C2c3cccc4[nH]cc(c34)C[C@H]21 [Ergotamine D-tartrate] shows AC50 strictly lower than 40 µM.
Completion: Satisfied

* * *

system: thyroid hormone receptor (endogenous TRα and TRβ); design: species or system GH3-TRE-Luc (rat pituitary); GH3-TRE-Luc luciferase reporter, antagonist mode against 1 nM T3, loss of signal, qHTS; settings: antagonist mode, 1 nM T3, no GH3 cytotoxicity hit, read-out: Average AC50 (uM) GH3-TRE-Antag
measured.attribute: AC50 (µM)
Use µM as the unit, but write only the number.

{"columns": ["sample.smiles", "AC50, µM"],
 "data": [
  ["CCN(CC)c1nc(C)cc(OP(=S)(OC)OC)n1", 57.1],
  ["COc1ccc2c(c1)[C@]13CCCC[C@@H]1[C@H](C2)N(C)CC3", 21.1],
  ["CN(C)c1ccc(N=Nc2ccccc2)cc1", 80.1]
]}

Prompt: Read off the recorded AC50 for OC(c1ccccc1)(c1ccccc1)C1CCNCC1
Completion: 10.4

* * *

The following compounds are listed with their measured AC50 values.
system: thyroid hormone receptor (endogenous TRα and TRβ); set-up: species or system GH3-TRE-Luc (rat pituitary); GH3-TRE-Luc luciferase reporter, antagonist mode against 1 nM T3, loss of signal, qHTS; settings: antagonist mode, 1 nM T3, no GH3 cytotoxicity hit, read-out: Average AC50 (uM) GH3-TRE-Antag
Structures can show the parent of a compound that is named as a salt.
Use µM as the unit, but write only the number.

Worked examples, 5 compounds total:
{"columns": ["compound", "AC50 (µM)"],
 "data": [
  ["C[C@]12CC[C@H]3[C@@H](CCC4=CC(=O)CC[C@@]43C)[C@@H]1CC[C@H]2O [Epitestosterone]", 38.7],
  ["CC(=O)[C@H]1CC[C@H]2[C@@H]3CC[C@@H]4C[C@H](O)CC[C@]4(C)[C@H]3CC[C@]12C", 13.6],
  ["CC[C@@H](O)C(C[C@@H](C)N(C)C)(c1ccccc1)c1ccccc1 [(+)-alpha-Methadol hydrochloride]", 55.7],
  ["O=c1c2ccccc2c(=O)c2c1cc(Cl)c1[nH]c3c([nH]c12)c(Cl)cc1c(=O)c2ccccc2c(=O)c13", 57.8],
  ["C[C@]12CC[C@H]3[C@@H](CCC4=CC(=O)CC[C@@]43C)[C@@H]1CC[C@@H]2OC(=O)CCc1ccccc1 [Testosterone 17-phenylpropionate]", 30]
]}

Prompt: Read off the recorded AC50 for C[C@H](CN1CCOCC1)C(C(=O)N1CCCC1)(c1ccccc1)c1ccccc1 [Dextromoramide tartrate]
Completion: 56.7

Prompt: Read off the recorded AC50 for COP(=O)(OC)O/C(=C\Cl)c1cc(Cl)c(Cl)cc1Cl
Completion: 37.7

Prompt: Read off the recorded AC50 for CC(=O)O[C@H]1CC[C@@]2(C)C(=CC[C@@H]3[C@@H]2CC[C@]2(C)C(=O)CC[C@@H]32)C1 [Dehydroepiandrosterone acetate]
Completion: 17.4

Prompt: Read off the recorded AC50 for O=C(O)Cc1ccccc1
Completion: 18.1

Prompt: Read off the recorded AC50 for C[C@@H]1[C@H]2Cc3ccc(O)cc3[C@]1(C)CCN2C [(-)-Metazocine fumarate (1:1)]
Completion: 50.6

Prompt: Read off the recorded AC50 for COP(=O)(OC)OC(=CCl)c1cc(Cl)c(Cl)cc1Cl
Completion: 27.1

Prompt: Read off the recorded AC50 for CCOP(=S)(OCC)Oc1ccc(Cl)cc1Cl
Completion: 71.5

Provenance of the data: paper PMC6792352
